Target: UniProtKB P05804
Test: Cell-based E. coli assay with 4MUG substrate, with and without esterase pre-treatment of prodrug
Settings: live E. coli, 5 min preincubation, no esterase treatment; read-out: Potency, pre-incubation time 5 min
measured.parameter: IC50 (nM)
Unit nM implied. Number only.

Reported IC50 of Cc1cc(C)c2[nH]c(=O)c(CN(CCO[C@@H]3O[C@H](C(=O)O)[C@@H](O)[C@H](O)[C@H]3O)C(=O)Nc3ccccc3C(C)C)cc2c1 : 125

====

Record form. Attribute: IC50. Fill in for each entry.
Target: β-glucuronidase activity in live E. coli (4MUG to 4MU conversion) (Escherichia coli)
Sequence (P05804 whole entry): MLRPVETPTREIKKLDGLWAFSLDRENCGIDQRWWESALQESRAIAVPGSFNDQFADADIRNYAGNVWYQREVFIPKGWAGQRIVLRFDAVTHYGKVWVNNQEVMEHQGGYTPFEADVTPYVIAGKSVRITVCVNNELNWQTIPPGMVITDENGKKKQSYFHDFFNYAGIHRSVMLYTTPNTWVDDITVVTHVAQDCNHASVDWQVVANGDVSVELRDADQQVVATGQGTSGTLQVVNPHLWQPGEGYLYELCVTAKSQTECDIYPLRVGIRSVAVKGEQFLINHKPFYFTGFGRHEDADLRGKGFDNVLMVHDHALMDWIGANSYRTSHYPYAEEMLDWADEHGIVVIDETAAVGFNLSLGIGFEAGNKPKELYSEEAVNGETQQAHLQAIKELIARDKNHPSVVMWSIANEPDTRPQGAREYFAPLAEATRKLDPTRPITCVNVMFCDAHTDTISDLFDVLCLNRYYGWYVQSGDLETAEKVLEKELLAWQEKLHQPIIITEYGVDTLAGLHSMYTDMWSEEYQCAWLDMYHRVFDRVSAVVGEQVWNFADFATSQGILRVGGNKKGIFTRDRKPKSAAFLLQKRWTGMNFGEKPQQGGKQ
Test: Cell-based E. coli assay with 4MUG substrate, with and without esterase pre-treatment of prodrug
Conditions: live E. coli, 4 hour preincubation, treated with 5 mg/mL esterase for 30 mins at 37° C.; read-out: Potency, pre-incubation time 4 hour, + Esterase
Unit nM implied. Number only.

Record COC(=O)[C@H]1O[C@@H](OCCN(Cc2cc3cc(C)cc(C)c3[nH]c2=O)C(=O)Nc2ccccc2C(C)C)[C@H](OC(C)=O)[C@@H](OC(C)=O)[C@@H]1OC(C)=O ; system β-glucuronidase activity in live E. coli (4MUG to 4MU conversion) (Escherichia coli); IC50 = 0.52

Record Cc1cc(C)c2[nH]c(=O)c(CN(CCO[C@@H]3O[C@H](C(=O)O)[C@@H](O)[C@H](O)[C@H]3O)C(=O)Nc3ccccc3C(C)C)cc2c1 ; system β-glucuronidase activity in live E. coli (4MUG to 4MU conversion) (Escherichia coli); IC50 = 0.57

The origin of these recorded values is patent US20220125778A1.
